# Measured on: monomeric streptavidin variant mSA2
# Assay name: fluorescent binding assay, labeled mSA2 in PBS on thin film; quadratic curve fit
Measured metric: [P]T (total concentration of accessible binding sites) (µM)
Give bare numbers, in µM.

// below: answered binders
3xSP25k thin film (3x rcSso7d.SA-PNIPAM conjugate, PNIPAM Mn 24.9 kDa) (designed binder, maleimide end-functionalized PNIPAM (Mn 24.9 kDa) on the N-terminal Cys; film lightly crosslinked with glutaraldehyde, Three rcSso7d.SA repeats joined by (G4S)2 linkers in one chain; also called conjugate of the trimer) MGSSHHHHHHSSGLVPRGSHMCATVKFTYQGEEKQVDISKIKIVARDGQYIDFKYDEGGGAYGYGWVSEKDAPKELLQMLEKQGGGGSGGGGSMATVKFTYQGEEKQVDISKIKIVARDGQYIDFKYDEGGGAYGYGWVSEKDAPKELLQMLEKQGGGGSGGGGSMATVKFTYQGEEKQVDISKIKIVARDGQYIDFKYDEGGGAYGYGWVSEKDAPKELLQMLEKQGG; 3.9
2xSP25k thin film (2x rcSso7d.SA-PNIPAM conjugate, 25 kDa PNIPAM) (designed binder, maleimide end-functionalized PNIPAM (25 kDa) on the N-terminal Cys; film lightly crosslinked with glutaraldehyde, Two rcSso7d.SA repeats joined by a (G4S)2 linker in one chain) MGSSHHHHHHSSGLVPRGSHMCATVKFTYQGEEKQVDISKIKIVARDGQYIDFKYDEGGGAYGYGWVSEKDAPKELLQMLEKQGGGGSGGGGSMATVKFTYQGEEKQVDISKIKIVARDGQYIDFKYDEGGGAYGYGWVSEKDAPKELLQMLEKQGG; 3.3

Each binder below has a recorded value; state its [P]T (total concentration of accessible binding sites).
1. 4xSP25k thin film (4x rcSso7d.SA-PNIPAM conjugate, 25 kDa PNIPAM) (designed binder, maleimide end-functionalized PNIPAM (25 kDa) on the N-terminal Cys; film lightly crosslinked with glutaraldehyde, Four rcSso7d.SA repeats joined by (G4S)2 linkers in one chain) MGSSHHHHHHSSGLVPRGSHMCATVKFTYQGEEKQVDISKIKIVARDGQYIDFKYDEGGGAYGYGWVSEKDAPKELLQMLEKQGGGGSGGGGSMATVKFTYQGEEKQVDISKIKIVARDGQYIDFKYDEGGGAYGYGWVSEKDAPKELLQMLEKQGGGGSGGGGSMATVKFTYQGEEKQVDISKIKIVARDGQYIDFKYDEGGGAYGYGWVSEKDAPKELLQMLEKQGGGGSGGGGSMATVKFTYQGEEKQVDISKIKIVARDGQYIDFKYDESGGAYGYGWVSEKDAPKELLQMLEKQ
2. 1xSP25k thin film (1x rcSso7d.SA-PNIPAM conjugate, 25 kDa PNIPAM) (designed binder, maleimide end-functionalized PNIPAM (25 kDa) on the N-terminal Cys; film lightly crosslinked with glutaraldehyde) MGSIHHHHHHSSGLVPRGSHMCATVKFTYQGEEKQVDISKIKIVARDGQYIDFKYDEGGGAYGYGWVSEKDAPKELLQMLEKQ

1. 3.7
2. 3.1
